tested on: generalized trembling caused by dl-5-hydroxytryptophane; test: Test A: potentiation in mice of generalized trembling caused by dl-5-hydroxytryptophane; type: in vivo; settings: Mus musculus, po, mice, potentiation of trembling by dl-5-hydroxytryptophane 200 mg/kg interperitoneal, read-out: Test A ED 50
Threshold 7 mg/kg: ED50 strictly smaller gives Fulfilled, otherwise Not fulfilled.

QUERY: Bench note: check whether CCCCCCOc1ccc(N2CC(COC)OC2=O)cc1 (centres unmarked) shows ED50 below 7 mg/kg
RESULT: Fulfilled

QUERY: Report whether reported ED50 is lower than 7 mg/kg (strictly) for CCC(=O)OCC1CN(c2ccc(OCc3cccc(F)c3)cc2)C(=O)O1 (centres unmarked)
RESULT: Fulfilled

QUERY: Lab note: ED50 threshold 7 mg/kg. Does this compound come in strictly under it? COCC1CN(c2ccc(-c3ccccc3)cc2)C(=O)O1 (centres unmarked)
RESULT: Fulfilled

QUERY: Answer whether the compound N#CCOc1ccc(N2CC(CO)OC2=S)cc1 (centres unmarked) has ED50 strictly less than 7 mg/kg
RESULT: Not fulfilled

###

test: Toxicity LD50 mouse; details: in vivo, po, read-out: Toxicity LD 50
readout.label: LD50

According to the records, this compound O=[N+]([O-])c1cccc(COc2ccc(N3CC(CO)OC3=S)cc2)c1 (centres unmarked) [compound 94] displays LD50 of > 2000 mg/kg

GET /value?item= CCC(=O)OCC1CN(c2ccc(OCc3cccc(C#N)c3)cc2)C(=O)O1 (centres unmarked) [compound 132] &field=LD50 returns > 2000 mg/kg

Entry COCC1CN(c2ccc(OCC3CCCOC3)cc2)C(=O)O1 (centres unmarked) [compound 182] ; LD50 = > 1000 mg/kg

Form field LD50, entry COCC1CN(c2ccc(OCCN3CCOCC3)cc2)C(=O)O1 (centres unmarked) [compound 181] : > 1000 mg/kg

Item: COCC1CN(c2ccc(/C=C/c3ccccc3)cc2)C(=O)O1 (centres unmarked) [compound 187] | LD50: > 1000 mg/kg

Others:
LD50 in this record for COCC1CN(c2ccc(OCC3CCCC3)cc2)C(=S)O1 (centres unmarked) [compound 211] : 1000 mg/kg

The value of LD50 measured for the compound CC(=O)OCC1CN(c2ccc(OCC3CCCC3)cc2)C(=O)O1 (centres unmarked) [compound 13] turned out to be > 2000 mg/kg

Sample COCC1CN(c2ccc(OCc3cccnc3)cc2)C(=S)O1 (centres unmarked) [compound 213] ; LD50 observed: 1000 mg/kg

# compound COCC1CN(c2ccc(OCc3cc(C#N)cc([N+](=O)[O-])c3)cc2)C(=O)O1 (centres unmarked) [compound 161] ; its LD50 = > 2000 mg/kg

For reference, reported LD50 for COC[C@H]1CN(c2ccc(OCc3cccc(C#N)c3)cc2)C(=O)O1 [compound 199] stands at > 1000 mg/kg

Reported LD50 of N#Cc1cccc(COc2ccc(N3CC(CN)OC3=O)cc2)c1 (centres unmarked) [compound 205] : > 1000 mg/kg

###

system: generalized trembling caused by dl-5-hydroxytryptophane; experiment: Test A: potentiation in mice of generalized trembling caused by dl-5-hydroxytryptophane; assay type: in vivo; conditions: Mus musculus, po, mice, potentiation of trembling by dl-5-hydroxytryptophane 200 mg/kg interperitoneal, read-out: Test A ED 50
Property: log10 ED50; scope: individual molecules
Note: values are log10 of ED50 expressed in mg/kg.

// below: answered molecules
Input COCC1CN(c2ccc(OCc3cccc(Cl)c3)cc2)C(=O)O1 (stereo not drawn) . Output log10 ED50: 0.53

Reported log10 ED50 of O=C(OCC1CN(c2ccc(OCC3CCCC3)cc2)C(=O)O1)c1ccccc1 (stereo not drawn) : 0.94

// recorded log10 ED50 for CC(=O)OCC1CN(c2ccc(OCCC(C)C)cc2)C(=O)O1 (stereo not drawn) : 0.30

Consider N#CCCCCOc1ccc(N2CC(CO)OC2=S)cc1 (stereo not drawn) . Its measured log10 ED50 is 0.79

More entries:
Value of log10 ED50 reported for the molecule O=C(OCC1CN(c2ccc(OCc3cccc([N+](=O)[O-])c3)cc2)C(=O)O1)c1ccccc1 (stereo not drawn) is 1.18

// log10 ED50 lookup, molecule = CCCCCCCCC(=O)OCC1CN(c2ccc(OCCC(C)C)cc2)C(=O)O1 (stereo not drawn) , result: 0.64

The molecule identified as COCC1CN(c2ccc(OCc3cccc(C#N)c3)cc2)C(=S)O1 (stereo not drawn) registered its log10 ED50 at 0.20

log10 ED50 reported for this molecule O=C1OC(COC2CCCCC2)CN1c1ccc(OCC2CCCC2)cc1 (stereo not drawn) : 1.43

For this molecule ( NCC1CN(c2ccc(OCc3ccc(F)cc3)cc2)C(=O)O1 (stereo not drawn) ), measured log10 ED50 is 0.60
